The reported measurements were obtained from PubChem BioAssay AID1963443.

Reported IC50 values for a set of compounds
System: MDA-MB-231 complex spheroids, growth inhibition
Assay: Anticancer human tumor MDA-MB-231 cell line growth inhibition [Asc];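 note: spheroids exposed to compounds for 7 days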
Details: curve of first compound; second compound 0.1 µM
MEASURED PROPERTY: IC50

COMPOUND	RESULT
CNC(C)C(=O)NC1CN(S(=O)(=O)c2cccc(S(=O)(=O)N3CCC4CCC(C(=O)NC(c5ccccc5)c5ccccc5)N4C(=O)C(NC(=O)C(C)NC)C3)c2)CCC2CCC(C(=O)NC(c3ccccc3)c3ccccc3)N2C1=O (stereo unspecified) + Cc1c(S(C)(=O)=O)c(-c2cc(F)cc(N3CCN(c4ccc(NS(=O)(=O)c5ccc(NC(CCN6CCC(C(=O)OCCCP(=O)(O)O)CC6)CSc6ccccc6)c(S(=O)(=O)C(F)(F)F)c5)cc4)CC3)c2)c(-c2ccc(Cl)cc2)n1C(C)C	< 3.16 nM
O=C(c1cc(Cc2n[nH]c(=O)c3ccccc23)ccc1F)N1CCN(C(=O)C2CC2)CC1 + CNC(C)C(=O)NC1CN(S(=O)(=O)c2cccc(S(=O)(=O)N3CCC4CCC(C(=O)NC(c5ccccc5)c5ccccc5)N4C(=O)C(NC(=O)C(C)NC)C3)c2)CCC2CCC(C(=O)NC(c3ccccc3)c3ccccc3)N2C1=O	< 31.6 nM
CCN1C(C(=O)NC23CCC(C(=O)O)(CC2)CC3)C(c2cccc(Cl)c2F)C2(C(=O)Nc3cc(Cl)ccc32)C12CCCCC2 (stereo unspecified) + CNC(C)C(=O)NC1CN(S(=O)(=O)c2cccc(S(=O)(=O)N3CCC4CCC(C(=O)NC(c5ccccc5)c5ccccc5)N4C(=O)C(NC(=O)C(C)NC)C3)c2)CCC2CCC(C(=O)NC(c3ccccc3)c3ccccc3)N2C1=O	< 9.49 nM
C#Cc1c(F)ccc2cc(O)cc(-c3ncc4c(N5CC6CCC(C5)N6)nc(OCC56CCCN5CC(F)C6)nc4c3F)c12 (stereo unspecified) + CNC(C)C(=O)NC1CN(S(=O)(=O)c2cccc(S(=O)(=O)N3CCC4CCC(C(=O)NC(c5ccccc5)c5ccccc5)N4C(=O)C(NC(=O)C(C)NC)C3)c2)CCC2CCC(C(=O)NC(c3ccccc3)c3ccccc3)N2C1=O	< 31.6 nM
NC1CCC(NC2CC2c2ccccc2)CC1 (stereo unspecified) + CNC(C)C(=O)NC1CN(S(=O)(=O)c2cccc(S(=O)(=O)N3CCC4CCC(C(=O)NC(c5ccccc5)c5ccccc5)N4C(=O)C(NC(=O)C(C)NC)C3)c2)CCC2CCC(C(=O)NC(c3ccccc3)c3ccccc3)N2C1=O	< 0.316 nM
C=C(F)C(=O)N1CCN(c2nc(OCC3CCCN3C)nc3c2CCN(c2cccc4cccc(Cl)c24)C3)CC1CC#N (stereo unspecified) + Cc1c(S(C)(=O)=O)c(-c2cc(F)cc(N3CCN(c4ccc(NS(=O)(=O)c5ccc(NC(CCN6CCC(C(=O)OCCCP(=O)(O)O)CC6)CSc6ccccc6)c(S(=O)(=O)C(F)(F)F)c5)cc4)CC3)c2)c(-c2ccc(Cl)cc2)n1C(C)C	2290 nM

###

Tested on: MDA-MB-231 complex spheroids, growth inhibition
Experiment: Anticancer human tumor MDA-MB-231 cell line growth inhibition [Asc];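 note: spheroids exposed to compounds for 7 days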
Conditions: curve of first compound; second compound 0.949 µM
pIC50: −log10 of the molar value.

COMPOUND	EXPERIMENTAL SYSTEM	pIC50
C#Cc1c(F)ccc2cc(O)cc(-c3ncc4c(N5CC6CCC(C5)N6)nc(OCC56CCCN5CC(F)C6)nc4c3F)c12 (stereo not drawn) + CCN1C(C(=O)NC23CCC(C(=O)O)(CC2)CC3)C(c2cccc(Cl)c2F)C2(C(=O)Nc3cc(Cl)ccc32)C12CCCCC2	MDA-MB-231 complex spheroids, growth inhibition	< 5.00
Cc1nc(N2CCC3(CC2)COC(C)C3N)c(CO)nc1Sc1ccnc(N)c1Cl (stereo not drawn) + CCN1C(C(=O)NC23CCC(C(=O)O)(CC2)CC3)C(c2cccc(Cl)c2F)C2(C(=O)Nc3cc(Cl)ccc32)C12CCCCC2	MDA-MB-231 complex spheroids, growth inhibition	6.57
O=C(c1cc(Cc2n[nH]c(=O)c3ccccc23)ccc1F)N1CCN(C(=O)C2CC2)CC1 + CCN1C(C(=O)NC23CCC(C(=O)O)(CC2)CC3)C(c2cccc(Cl)c2F)C2(C(=O)Nc3cc(Cl)ccc32)C12CCCCC2	MDA-MB-231 complex spheroids, growth inhibition	< 5.00
